system: Staphylococcus aureus; assay: Antibacterial activity against Staphylococcus aureus MRSA ATCC 43300 (CO-ADD:GP_020); MIC in CAMBH media using NBS plates, by Resazurin F(560/590); type: functional; conditions: Concentration 20 uM, ASSAY_TEST Inhibition of Bacterial Growth, detection method Resazurin, Fluorescence (ex560/em590), MEDIA CAMHB, plate type 384well, CORNING #3640, time 18 hr
ASSAY ENDPOINT: Inhibition (%)

# MOLECULE, MEASUREMENT UNITS, RECORDED NUMBER
data = [
    ("O=C1C2C3C=CC(CC3)C2S(=O)(=O)C2C3C=CC(CC3)C12 (stereo not given)", "%", 13.49),
    ("O=C(O)/C=C/C(=O)Nc1cccc2cccnc12", "%", 36.64),
    ("Cc1ccc(NC(=O)Nc2c(Cl)cccc2Cl)cn1", "%", 20.25),
    ("O=C1CCCc2cc3c(cc21)CC1(C3)Cc2cc3c(cc2C1)C(=O)CCC3", "%", 15.97),
    ("c1ccc2[nH]c(CCCCCc3nc4ccccc4[nH]3)nc2c1", "%", 5.94),
    ("c1ccc2cc(OCCOCCOc3ccc4ccccc4c3)ccc2c1", "%", 11.38),
    ("O=C(Nc1ccc(Br)c2ccccc12)c1ccc2ccccc2c1O", "%", 0.57),
    ("N#Cc1nnn(-c2ccc(Cl)cc2)c1N", "%", 17.83),
    ("CCCCCCCCCCC(C(=O)O)C1(C(=O)O)CCC(=O)O1 (stereo not given)", "%", 8.92),
    ("O=c1oc2c(cc1O)oc(=O)c1cc(O)c(O)c(O)c12", "%", 7.4),
    ("CN(C)c1ccc(/C=C2/C=C(c3ccc4c(c3)CCCC4)OC2=O)cc1", "%", 19.91),
    ("Cc1cccc(Nc2sc(C(=O)c3cc4cc(Cl)ccc4o3)c(N)c2C#N)c1", "%", 1.46),
    ("CC(C)(C)c1ccc(C(=O)N2CCOC23CCCCC3)cc1", "%", 6.69),
    ("NC(=O)c1cc(C(N)=O)nc(Cl)n1", "%", 12.7),
    ("O=C(O)c1ccccc1-c1ccccc1C(=O)Nc1ccc2oc(=O)c3ccccc3c2c1", "%", 4.75),
    ("O=c1[nH]c2c(cnn2-c2ccc(Cl)cc2)c(=O)n1-c1cccc(Cl)c1", "%", 5.86),
    ("O=C1c2ccccc2C2=C3C(O)=NN=C3CCN12", "%", 13.67),
    ("C1CCC(NC2=NCCO2)CC1", "%", -4.28),
    ("S=C(Nc1ccccc1)c1ccccn1", "%", 3.41),
    ("CCCc1nc(NC(=O)c2ccccc2)nc(NC(=O)c2ccccc2)n1", "%", -10.01),
    ("O=C(/C=C\\c1ccc2ccccc2n1)c1cc(Cl)ccc1O", "%", -11.69),
    ("CN(C)Cc1c[nH]c2nccnc12", "%", 11.84),
    ("CCOc1ccc(Nc2c3ccccc3nc3ccccc23)cc1", "%", -9),
    ("CSc1nsc(NN)n1", "%", 4.83),
    ("CC(=O)NCCCOc1ccc([N+](=O)[O-])cc1Cl", "%", 3.67),
    ("Clc1cc2c(nn1)Nc1ccccc1S2", "%", -2.08),
    ("Cn1cnc([N+](=O)[O-])c1N=C(N)N", "%", -12.1),
    ("CCOC(=O)CSc1nc2nc(Cl)c(Cl)[nH]c-2n1", "%", 22.58),
    ("Oc1ccc2ccccc2c1/N=N/c1ccc(F)cc1", "%", 3.11),
    ("CN(CC(=O)O)Cc1oc(CO)cc(=O)c1O", "%", 10.58),
    ("Nc1ccc(NC(=O)c2ccc(C(=O)Nc3ccc(N)cc3)cc2)cc1", "%", 11.02),
    ("Cn1c(=O)c2nc(N3CCCCC3)[nH]c2n(C)c1=O", "%", 0.06),
    ("CC(=O)NCC(O)c1ccc([N+](=O)[O-])cc1 (stereo not given)", "%", 9.36),
    ("O=c1n(CC2CO2)c(=O)n(CC2CO2)c(=O)n1CC1CO1 (stereo not given)", "%", 0.12),
    ("N#CC1C=Cc2c(ccc3ccccc23)N1C(=O)c1ccccc1 (stereo not given)", "%", 29.76),
    ("CC(C)NCC1CCc2cc(CO)c([N+](=O)[O-])cc2N1 (stereo not given)", "%", 9.47),
    ("CC12CCC(C(NC(=S)NN)C1=O)C2(C)C (stereo not given)", "%", 2.53),
    ("Cc1nnc(Cc2ccccc2)c2[nH]nc(C)c12", "%", 16.17),
    ("c1ccc(-c2cc3ccccc3[nH]2)cc1", "%", 0.91),
    ("N#C/C(=C\\c1ccc(C#N)cc1)C(=O)c1ccccc1", "%", -10.06),
    ("CN(/N=N/c1[nH]cnc1C(=O)NN)C1CCCCC1", "%", 8.69),
    ("CN1C(=O)CC2(C)C1=CCc1scnc12 (stereo not given)", "%", 8.85),
    ("Nc1ncnc2c1ncn2C=C=CCO", "%", 13.44),
    ("Nc1ccc2c(c1Cl)C(=O)c1ccc(N)c(Cl)c1C2=O", "%", 3.14),
    ("CN(C)/C=N/c1ccc(Cl)c(Cl)c1", "%", 2.81),
    ("NC(=O)c1cc(Br)cc(C2CCCCC2)c1O", "%", 12.02),
    ("O=[N+]([O-])c1ccccc1/C=C/C=N/N=C/c1ccccc1O", "%", 0.05),
    ("COC(=O)c1ccc(Cn2cnc3c(Cl)ncnc32)cc1", "%", -16.45),
    ("O=[N+]([O-])c1ccc2[nH]c3nc4ccccc4nc3c2c1", "%", 17.59),
    ("Cc1ccc(CC#N)c(-c2c(CC#N)ccc(C)c2C)c1C", "%", 10.31),
]
